Where do these numbers come from? They come from PubChem BioAssay (NCI).

Test system: SF-539 CNS
Experiment notes: NCI tumour cell line growth inhibition, 48 h
# Lookup of reported TGI keyed by entry
Endpoint name: TGI

CC#CC1/C(=C\C(=O)OC)CCCC1O (configuration not stated)    > 100 µM
Cc1cc(NS(=O)(=O)c2ccc(NC(=O)c3cccc4c(Nc5ccc(S(=O)(=O)N=C(N)N)cc5)c5ccccc5nc34)cc2)no1    > 100 µM
OC1(c2cc3ccccc3s2)CCCCC1    > 100 µM
C=C(c1ccc(C(=O)N(C)c2ccccc2N)cc1)C(C)N1C(=O)[C@H]2CCCN2C(=O)c2ccccc21 (some centres not stated)    > 100 µM
COc1ccc(/C=C/C(=O)Oc2cc(O)cc(O)c2)cc1    > 100 µM
CCCNC(C#N)c1ccc(C(C#N)NCCC)cc1 (configuration not stated)    > 100 µM
CSC1=C(C#N)C(=O)N(c2ccc(C)cc2)C(=S)C1C#N (configuration not stated)    > 100 µM
C#Cc1c(C(N)=O)ncn1C1OC(COP(=O)(OCc2ccc([N+](=O)[O-])o2)N(C)CCCCCl)C(O)C1O (configuration not stated)    > 100 µM
N#CCc1ncc(-c2ccc(C(F)(F)F)cc2)c(NC2CCCCCC2)n1    > 10 µM
CC(C)NC(=O)OCc1c(COC(=O)NC(C)C)c(-c2ccc(Cl)cc2)n2c1CCC2    9.72 µM
Nc1c(C(=O)Nc2ccccc2)[n+]([O-])c2ccccc2[n+]1[O-]    37.3 µM
COc1cc(/C=C2\CCC(CN(C)C)C2=O)ccc1OC(=O)c1ccccc1 (configuration not stated)    30.4 µM
C(=C\c1ccccc1)/C=N/c1nc2cc3sc(/N=C/C=C/c4ccccc4)nc3cc2s1    > 100 µM
COc1ccc(-c2ccc(-c3ccc(-c4ccc(C(=N)N)cc4)s3)s2)cc1OC    38.7 µM
O=C1c2c(n(Cc3ccccc3)c(=O)n2Cc2ccccc2)C(=O)N1Cc1ccccc1    > 100 µM
N#Cc1c(N2CCCC2)ncn(Cc2ccccc2)c1=O    > 100 µM
COc1ccc2c(c1)C(c1ccccc1Cl)=Nc1c(n[nH]c1C)N2    > 18.8 µM
O=C(Nc1ccccc1O)c1ccc(Oc2cccc(C(=O)Nc3ccccc3O)c2)cc1    6.3 µM
CC(CO)C1C[C@H](O)[C@@]2(C)CC(=O)C=C(CO)[C@@H]2C1 (some centres not stated)    > 100 µM
C=C(C)C(=O)[C@@]12C(=O)[C@@H](C)CC[C@H]1[C@H](C)C[C@@H]2C=C(C)C    47.4 µM
N#CC1=C(N)NC(=O)NC12Nc1ccccc1S2 (configuration not stated)    > 54.9 µM
Nc1ccccc1N/C=C\C(=O)C(Cl)(Cl)Cl    > 100 µM

----------
Test system: IGROV1 ovarian
Experiment notes: NCI tumour cell line growth inhibition, 48 h
Listed compounds paired with reported TGI
Endpoint name: TGI

CN(C)CCNC(=O)c1cccc2nc3c(nc12)-c1ccccc1C3=O    > 71.1 µM
CC(C)(C)C(=O)ON1N=NC2C3CC(OCc4ccccc4)(OCc4ccccc4)C(O3)C21 (stereo not drawn)    > 100 µM
c1ccc2c(c1)nc(NC1CCCC1)c1[nH]c(C3CCCC3)nc12    46 µM
c1ccc(-c2nc(-c3ccccc3)c(-c3ccccc3)[nH]2)cc1    > 100 µM
O=C1Cc2c([nH]c3ccc(Br)cc23)-c2ccccc2N1    > 100 µM
NC(N)=NNC(=O)CCCCCCCC(=O)NN=C(N)N    > 100 µM
O=[Se](=O)c1ccccc1.O=[Se](=O)c1ccccc1.[Cu]    37.3 µM
O=C(c1ccco1)c1c(C(F)(F)F)n([O-])c2ccccc2[n+]1=O    1.21 µM
O=C1c2c(nc3ccccc3c2-c2ccccc2)CN1Nc1ccccn1    > 100 µM
CCOc1nc(-c2ccccc2)cc(-c2ccc(N3CCOCC3)cc2)c1C#N    > 100 µM
CCN(CCCl)CCCNc1c2ccccc2nc2ccc(OC)cc12    1510 µM
O=c1c2cc(I)ccc2nc(Sc2ncccc2[N+](=O)[O-])n1Cc1ccccc1    > 100 µM
O=Nc1ccc2ccccc2c1O    5.91 µM
O=C(O)c1ccc(N/C=C2\C(=O)c3ccccc3OC2O)cc1O (stereo not drawn)    47.3 µg/mL
O=c1[nH]nc(-c2ccccc2)n1/N=C/c1c(O)ccc2ccccc12    > 100 µM
CCOC(=O)C1SC(=Nc2ccc(Cl)c(Cl)c2)N=C1C (stereo not drawn)    > 100 µM
O=C1NC2(CCCCC2)C2CCCCCC12 (stereo not drawn)    > 100 µM
COc1cc2c[n+](C)c3c4ccccc4ccc3c2cc1OC (tested in a mixture with another compound)    44.1 µM
COC(=O)n1c(=O)n(-c2ccccc2)c(=O)n1C(=O)OC    > 100 µM
COc1ccc(C(=O)c2cc3c(OC)c(OC)c(OC)cc3[nH]2)cc1    > 100 µM
CCc1ccc2[nH]c(O)c(-c3[nH]c4ccccc4c3N=O)c2c1    18.6 µM
COC(=O)/C=C1\CCC(C)(C(=O)NS(=O)(=O)c2ccc(C)cc2)C1(C)C (stereo not drawn)    > 100 µM
CSC1=C(C#N)C(=O)N(c2ccc(C)cc2)C(=S)C1C#N (stereo not drawn)    > 100 µM

----------
Test system: HT29 colon
Experiment notes: NCI tumour cell line growth inhibition, 48 h
Endpoint name: TGI

Cc1cn(CC2=NCC(C)(C)N2)c(=O)[nH]c1=O    > 100 µM
CN(C)C(=O)c1cc2cnc(Nc3ccc(-c4csc5c(=O)cc(N6CCOCC6)oc45)cc3)nc2n1C1CCCC1    > 100 µM
C#CC(F)(F)[C@]1(O)CC[C@H]2[C@@H]3CCC4=CC(=O)CCC4=C3[C@@H](c3ccc(C(C)=O)cc3)C[C@@]21C    > 50.5 µM

----------
Tested on: RXF 393 renal
Experiment notes: NCI tumour cell line growth inhibition, 48 h
Endpoint name: TGI

O=C(O)c1ccc(N/C=C2\C(=O)c3ccccc3OC2O)cc1O (stereo unspecified)    34.5 µg/mL
O=S1(=O)c2ccccc2C(=NO)c2ccccc21    > 100 µM
OC1(c2cc3ccccc3s2)CCCCC1    > 100 µM
COc1ccccc1C#Cc1ccccc1C#CCCCCCC#Cc1ccccc1C#Cc1ccccc1OC    > 100 µM
O=C1/C(=C/c2ccccc2[N+](=O)[O-])N=C(c2ccccc2)N1C1Nc2cc3c(cc2S1)NC(N1C(=O)/C(=C/c2ccccc2[N+](=O)[O-])N=C1c1ccccc1)S3 (stereo unspecified)    > 100 µM
O=C(OCC1CO1)c1cccs1 (stereo unspecified)    > 100 µM

----------
System: SW-620 colon
Experiment notes: NCI tumour cell line growth inhibition, 48 h
Where a SMILES comes first, the peptide text is derived from it. The star is where a group is joined. Boc = CC(C)(C)OC(=O)*; OBn = c1ccc(CO*)cc1
Endpoint name: TGI

O=S1(=O)c2ccccc2C(=NO)c2ccccc21    > 100 µM
O=C1Nc2cc([N+](=O)[O-])ccc2NC1/C(=N\Nc1ccccc1)C(O)c1cccc([N+](=O)[O-])c1 (stereo not given)    > 100 µM
O=C1COc2ccc([N+](=O)[O-])cc2C(=O)C1    > 10 µM
NC(=O)C(c1ccccc1)N1CCOCC1 (stereo not given)    > 100 µM
CCCNC(C#N)c1ccc(C(C#N)NCCC)cc1 (stereo not given)    > 100 µM
CC#CC1/C(=C\C(=O)OC)CCCC1O (stereo not given)    > 100 µM
COc1ccc(C(=O)c2cc3c(OC)c(OC)c(OC)cc3[nH]2)cc1    > 100 µM
[N-]=[N+]=CC(=O)OCC1SCCCS1    > 100 µM
NC(=O)c1ccc2c(c1)S(=O)(=O)c1ccccc1C2=O    > 100 µM
O=c1cc(N2CCCC2)[nH]c(=O)n1-c1cccc(C(F)(F)F)c1    > 100 µM
O=C1C=C(Br)c2c(Br)sc(Br)c21    > 20.6 µM
CNC(=O)c1cc(NC(=O)N(CCC#N)CCN(C(=O)N[C@@H](Cc2ccccc2)C(=O)N[C@@H](CC(C)C)C(=O)NC)c2ccccc2)ccc1OC    > 100 µM
COC(=O)/C=C1\CCC(C)(C(=O)NS(=O)(=O)c2ccc(C)cc2)C1(C)C (stereo not given)    > 100 µM
O=c1[nH]c(=O)n(Cc2ccccc2CO)cc1Sc1ccccc1    > 100 µM
Fc1ccc(C2SCc3nc4ccccc4n32)cc1 (stereo not given)    > 100 µM
Cc1cn(CC2=NCC(C)(C)N2)c(=O)[nH]c1=O    > 100 µM
O=C(c1ccco1)c1c(C(F)(F)F)n([O-])c2ccccc2[n+]1=O    20.5 µM
O=c1[nH]nc(-c2ccccc2)n1/N=C/c1c(O)ccc2ccccc12    > 100 µM
CCN1c2ccccc2C(Cl)(c2ccc(N(C)C)cc2)c2ccccc21    12.1 µM
O=C(C(=O)N1CC2C=CC1CC2)c1c[nH]c2ccccc12 (stereo not given)    > 100 µM
Cc1ccc(C(C2C(=O)N(C)C(=O)N(C)C2=O)C(F)(F)C(=O)N(C)C)cc1 (stereo not given)    > 100 µM
Nc1c(C(=O)Nc2ccccc2)[n+]([O-])c2ccccc2[n+]1[O-]    38.3 µM
CN1CCN(Cc2ccc(NC(=O)c3ccc(C#Cc4c(N)ncc5ccc(F)cc45)cc3)cc2C(F)(F)F)CC1    1.87 µM
CC(NC(=O)C(NC(=O)OC(C)(C)C)C(C)C)C(=O)N1CCCC1C(=O)NCC(=O)NC(C(=O)NCC(=O)OCc1ccccc1)C(C)C (stereo not given) (Boc-VAPGVG-OBn; configuration not given here)    > 100 µM
O=C(N/N=C/c1ccc([N+](=O)[O-])cc1)c1ccc2nc(-c3ccc(Cl)cc3)[nH]c2c1    10.8 µM
